Settings: in isopropanol, 320.1 K
READOUT LABEL: solubility (mole fraction)
API doc: respond with a numeric literal and nothing else, no unit.

-- ask Give solubility (mole fraction) for the following compound: C[C@H]1[C@H](C)CC[C@]2(C(=O)O)CC[C@]3(C)C(=CC[C@@H]4[C@@]5(C)CC[C@H](O)C(C)(C)[C@@H]5CC[C@]43C)[C@H]12
-- reply 0.00273

* * *

Conditions: in ethyl acetate, 329.7 K
READOUT LABEL: solubility (mole fraction)
API doc: respond with a numeric literal and nothing else, no unit.

-- ask Give solubility (mole fraction) for the following molecule: C[C@H]1[C@H](C)CC[C@]2(C(=O)O)CC[C@]3(C)C(=CC[C@@H]4[C@@]5(C)CC[C@H](O)C(C)(C)[C@@H]5CC[C@]43C)[C@H]12
-- reply 0.00186

* * *

Settings: in ethanol, 320.1 K
READOUT LABEL: solubility (mole fraction)

-- ask Give solubility (mole fraction) for the following compound: C[C@H]1[C@H](C)CC[C@]2(C(=O)O)CC[C@]3(C)C(=CC[C@@H]4[C@@]5(C)CC[C@H](O)C(C)(C)[C@@H]5CC[C@]43C)[C@H]12
-- reply 0.00105

* * *

Conditions: in ethanol, 329.7 K
READOUT LABEL: solubility (mole fraction)
API doc: respond with a numeric literal and nothing else, no unit.

-- ask Give solubility (mole fraction) for the following compound: C[C@H]1[C@H](C)CC[C@]2(C(=O)O)CC[C@]3(C)C(=CC[C@@H]4[C@@]5(C)CC[C@H](O)C(C)(C)[C@@H]5CC[C@]43C)[C@H]12
-- reply 0.00116

* * *

Settings: in ethanol, 300.1 K
READOUT LABEL: solubility (mole fraction)
API doc: respond with a numeric literal and nothing else, no unit.

-- ask Give solubility (mole fraction) for the following molecule: C[C@H]1[C@H](C)CC[C@]2(C(=O)O)CC[C@]3(C)C(=CC[C@@H]4[C@@]5(C)CC[C@H](O)C(C)(C)[C@@H]5CC[C@]43C)[C@H]12
-- reply 0.000766

* * *

Settings: in ethanol, 323.2 K
READOUT LABEL: solubility (mole fraction)
API doc: respond with a numeric literal and nothing else, no unit.

-- ask Give solubility (mole fraction) for the following molecule: C[C@H]1[C@H](C)CC[C@]2(C(=O)O)CC[C@]3(C)C(=CC[C@@H]4[C@@]5(C)CC[C@H](O)C(C)(C)[C@@H]5CC[C@]43C)[C@H]12
-- reply 0.00105

* * *

Conditions: in ethyl acetate, 310 K
READOUT LABEL: solubility (mole fraction)
API doc: respond with a numeric literal and nothing else, no unit.

-- ask Give solubility (mole fraction) for the following compound: C[C@H]1[C@H](C)CC[C@]2(C(=O)O)CC[C@]3(C)C(=CC[C@@H]4[C@@]5(C)CC[C@H](O)C(C)(C)[C@@H]5CC[C@]43C)[C@H]12
-- reply 0.00113

* * *

Details: in isopropanol, 310 K
READOUT LABEL: solubility (mole fraction)

-- ask Give solubility (mole fraction) for the following compound: C[C@H]1[C@H](C)CC[C@]2(C(=O)O)CC[C@]3(C)C(=CC[C@@H]4[C@@]5(C)CC[C@H](O)C(C)(C)[C@@H]5CC[C@]43C)[C@H]12
-- reply 0.00213

* * *

Conditions: in isopropanol, 323.2 K
READOUT LABEL: solubility (mole fraction)
API doc: respond with a numeric literal and nothing else, no unit.

-- ask Give solubility (mole fraction) for the following compound: C[C@H]1[C@H](C)CC[C@]2(C(=O)O)CC[C@]3(C)C(=CC[C@@H]4[C@@]5(C)CC[C@H](O)C(C)(C)[C@@H]5CC[C@]43C)[C@H]12
-- reply 0.00275
